The values you see were collected from ChEMBL document CHEMBL2069226.

Assay: Apparent permeability from apical to basolateral direction in MDCKI cells expressing MDR
Format: ADME, cell-based, Canis lupus familiaris
Settings: dog, MDCK-MDR1
Property: Papp A→B (×10⁻⁶ cm/s)

compound="Cc1cccc(-c2noc(C3CC(=O)N(c4ccc(F)cc4)C3)n2)c1 (single isomer, unassigned; (-))" value_measured=20

----------
Assay: Plasma concentration in rat at 10 mg/kg, ip administered as single dose after 1 hr
Type: ADME, organism-based
Design: dose 10 mg/kg, route intraperitoneal
Property: concentration at 1 h (ng/mL)

molecule="O=C1CC(c2nc(-c3cccc(Cl)c3)no2)CN1c1ccc(F)cc1 (racemic)" property="concentration at 1 h" value_measured=22
molecule="Cc1cccc(-c2noc(C3CC(=O)N(c4ccc(F)cc4)C3)n2)c1 (single isomer, unassigned; (-))" property="concentration at 1 h" value_measured=46

----------
Assay: Ratio of drug uptake in brain to plasma in rat at 10 mg/kg, ip administered as single dose after 1 hr
Format: ADME, organism-based
Set-up: dose 10 mg/kg, route intraperitoneal
Conditions: read-out: BPR
Property: Kp at 1 h

molecule="Cc1cccc(-c2noc(C3CC(=O)N(c4ccc(F)cc4)C3)n2)c1 (single isomer, unassigned; (-))" value_measured=7.5

----------
Overview of recorded EC50 for various compounds
Biological target: Metabotropic glutamate receptor 5 (Homo sapiens, UniProt P41594)
Sequence (P41594 whole entry): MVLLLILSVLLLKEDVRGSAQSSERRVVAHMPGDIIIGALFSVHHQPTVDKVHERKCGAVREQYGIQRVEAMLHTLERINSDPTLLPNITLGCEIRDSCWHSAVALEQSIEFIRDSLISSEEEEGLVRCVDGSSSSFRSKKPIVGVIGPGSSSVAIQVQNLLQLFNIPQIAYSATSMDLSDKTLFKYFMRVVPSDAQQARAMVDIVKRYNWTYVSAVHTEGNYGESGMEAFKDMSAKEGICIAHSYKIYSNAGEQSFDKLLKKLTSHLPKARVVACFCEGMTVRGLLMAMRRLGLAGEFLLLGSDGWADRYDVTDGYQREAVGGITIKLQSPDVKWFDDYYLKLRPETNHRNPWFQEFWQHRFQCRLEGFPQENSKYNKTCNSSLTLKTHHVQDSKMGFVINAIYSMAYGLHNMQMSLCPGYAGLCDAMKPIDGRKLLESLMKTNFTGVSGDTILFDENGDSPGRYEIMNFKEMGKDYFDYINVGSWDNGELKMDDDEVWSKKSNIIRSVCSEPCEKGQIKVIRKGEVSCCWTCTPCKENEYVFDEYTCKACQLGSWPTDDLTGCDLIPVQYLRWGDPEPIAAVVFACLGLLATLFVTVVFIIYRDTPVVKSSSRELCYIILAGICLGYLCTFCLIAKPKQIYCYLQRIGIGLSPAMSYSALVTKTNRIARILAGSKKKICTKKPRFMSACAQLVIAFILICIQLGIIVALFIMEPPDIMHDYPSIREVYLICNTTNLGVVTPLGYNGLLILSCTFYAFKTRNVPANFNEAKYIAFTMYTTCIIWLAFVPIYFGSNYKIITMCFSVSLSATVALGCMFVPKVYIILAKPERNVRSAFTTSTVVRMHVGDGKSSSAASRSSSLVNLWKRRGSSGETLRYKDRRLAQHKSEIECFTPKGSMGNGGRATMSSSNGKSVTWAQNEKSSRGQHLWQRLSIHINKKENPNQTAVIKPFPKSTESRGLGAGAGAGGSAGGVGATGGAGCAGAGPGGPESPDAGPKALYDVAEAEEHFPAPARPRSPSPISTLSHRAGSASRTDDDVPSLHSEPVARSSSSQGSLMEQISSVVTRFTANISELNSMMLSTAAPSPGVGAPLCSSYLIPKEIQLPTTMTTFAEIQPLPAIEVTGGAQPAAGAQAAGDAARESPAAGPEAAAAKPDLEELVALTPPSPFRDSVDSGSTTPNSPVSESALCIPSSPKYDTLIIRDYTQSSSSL
Test: Positive allosteric modulation of human mGluR5 expressed in HEK293A cells assessed as stimulation of glutamate-induced calcium flux by FLIPR method
Format: functional, cell-based, HEK293-A
Property: EC50 (µM)

compound="Cc1ccc(N2CC(c3nc(-c4cccc(F)c4)no3)CC2=O)cc1 (stereo unspecified)" property=EC50 readout_units=µM op== value_measured=1.2
compound="Cc1ccccc1N1CC(c2nc(-c3cccc(Cl)c3)no2)CC1=O (stereo unspecified)" property=EC50 readout_units=µM op=> value_measured=10
compound="O=C1CC(c2nc(-c3cccc(F)c3)no2)CN1c1ccc(Cl)c(Cl)c1 (stereo unspecified)" property=EC50 readout_units=µM op== value_measured=3.2
compound="Cc1cccc(-c2noc(C3CC(=O)N(c4ccc(Cl)cc4)C3)n2)n1 (stereo unspecified)" property=EC50 readout_units=µM op=> value_measured=10
compound="O=C1CC(c2nc(-c3cccc(Cl)c3)no2)CN1c1ccccc1Cl (stereo unspecified)" property=EC50 readout_units=µM op=> value_measured=10
compound="O=C1CC(c2nc(-c3cccc(Cl)c3)no2)CN1c1ccc(Cl)cc1 (stereo unspecified)" property=EC50 readout_units=µM op== value_measured=0.14

----------
Experiment: Apparent permeability from basolateral to apical direction in MDCKI cells expressing MDR
Type: ADME, cell-based, Canis lupus familiaris
Settings: dog, MDCK-MDR1
Property: Papp B→A

compound="Cc1cccc(-c2noc(C3CC(=O)N(c4ccc(F)cc4)C3)n2)c1 (single isomer, unassigned; (-))" value_measured="64 nm/s"

----------
Target: Metabotropic glutamate receptor 5 (Homo sapiens, UniProt P41594)
Assay: Positive allosteric modulation of human mGluR5 expressed in HEK293A cells assessed as stimulation of glutamate-induced calcium flux by FLIPR method
pEC50: −log10 of the molar value.
Criterion: pEC50 meeting or surpassing 6. Met: YES. Not met: NO.

compound="COc1ccccc1N1CC(c2nc(-c3cccc(Cl)c3)no2)CC1=O (stereo unspecified)" assay_system="Metabotropic glutamate receptor 5 (Homo sapiens, UniProt P41594)" assigned_label=NO
compound=O=c1sc2ccccc2n1Cc1nc(-c2cccc(Cl)c2)no1 assay_system="Metabotropic glutamate receptor 5 (Homo sapiens, UniProt P41594)" assigned_label=NO
compound="O=C1CC(c2nc(-c3cccc(Cl)c3)no2)CN1c1cccc(Cl)c1 (stereo unspecified)" assay_system="Metabotropic glutamate receptor 5 (Homo sapiens, UniProt P41594)" assigned_label=NO
compound="O=C1CC(c2nc(-c3cccc(Cl)c3)no2)CN1c1ccccc1F (stereo unspecified)" assay_system="Metabotropic glutamate receptor 5 (Homo sapiens, UniProt P41594)" assigned_label=NO
compound="Cc1cccc(-c2noc(C3CC(=O)N(c4ccc(Cl)c(Cl)c4)C3)n2)c1 (stereo unspecified)" assay_system="Metabotropic glutamate receptor 5 (Homo sapiens, UniProt P41594)" assigned_label=YES
compound="O=C1CC(c2nc(-c3ccccc3)no2)CN1c1ccccc1 (stereo unspecified)" assay_system="Metabotropic glutamate receptor 5 (Homo sapiens, UniProt P41594)" assigned_label=YES
compound="COc1cccc(-c2noc(C3CC(=O)N(c4ccc(Cl)cc4)C3)n2)c1 (stereo unspecified)" assay_system="Metabotropic glutamate receptor 5 (Homo sapiens, UniProt P41594)" assigned_label=NO
compound="O=C1CC(c2nc(-c3cccc(F)c3)no2)CN1c1ccc(Cl)cc1 (stereo unspecified)" assay_system="Metabotropic glutamate receptor 5 (Homo sapiens, UniProt P41594)" assigned_label=YES
compound="Cc1cccc(-c2noc(C3CC(=O)N(c4ccc(C)c(Cl)c4)C3)n2)c1 (stereo unspecified)" assay_system="Metabotropic glutamate receptor 5 (Homo sapiens, UniProt P41594)" assigned_label=YES
